Molecular target: UniProt:O14965
Sequence (O14965 whole entry): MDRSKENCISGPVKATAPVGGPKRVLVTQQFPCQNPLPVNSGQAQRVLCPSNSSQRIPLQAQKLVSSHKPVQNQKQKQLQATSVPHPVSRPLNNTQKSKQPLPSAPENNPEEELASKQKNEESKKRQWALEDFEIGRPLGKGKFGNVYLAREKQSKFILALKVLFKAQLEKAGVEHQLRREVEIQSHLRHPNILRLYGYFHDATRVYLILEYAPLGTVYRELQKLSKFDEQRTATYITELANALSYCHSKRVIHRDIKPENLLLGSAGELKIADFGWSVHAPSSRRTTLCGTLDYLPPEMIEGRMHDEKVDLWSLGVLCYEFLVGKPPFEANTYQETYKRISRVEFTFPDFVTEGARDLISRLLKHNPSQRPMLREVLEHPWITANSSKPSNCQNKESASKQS
pIC50: −log10 of the molar value.
// cross-study collection: pIC50 for UniProt:O14965
Measure: pIC50

Sample answers from the record:
{"columns": ["Compound", "Study target", "pIC50"],
 "data": [
  ["Cc1cc(CN2CCN(c3c(Br)cnc4[nH]c(-c5ccc(Cn6cccn6)cc5)nc34)CC2)no1", "UniProt:O14965", 8.00],
  ["COC(c1ccc(C)cc1)c1cnn2c(-c3ccccc3)cc3c(Cl)cccc3c12 (centres undefined)", "UniProt:O14965", 4.87],
  ["Cc1cc(Nc2cc(N3CCN(C)CC3)nc(Nc3ccc([N+](=O)[O-])cc3)n2)n[nH]1", "UniProt:O14965", 7.92],
  ["Cc1cn2c(-c3cnn(CC(=O)Nc4cccnc4)c3)cnc2c(Nc2cc(CN3CCCC(C)C3)ns2)n1 (centres undefined)", "UniProt:O14965", 6.73]
]}

I. Cc1cc(Nc2nn(CC(C)C)c(=O)c3ccccc23)n[nH]1
II. COc1ccccc1C(=O)Nc1ccc(Nc2ccnc3[nH]c(=O)c4ccccc4c23)cc1
III. COc1ccc(Nc2nc(-c3cccnc3)cn3ccnc23)cc1
IV. Cc1cc(Nc2cc(N3CCN(C)CC3)nc(Nc3ccc4c(c3)OCO4)n2)n[nH]1
V. CCOc1cc2ncnc(NCCc3ccc(NC(=O)Nc4cccc(C(F)(F)F)c4)cc3)c2cc1F
// ranking: key=pIC50, reverse=True I would appreciate it if you listed the labels in the requested order.
II, IV, V, I, III
(II: 8.15, IV: 7.70, V: 7.20, I: 6.94, III: 5.54)
